B1: ESRRA (parent)
chain: SLPLQDELAFAEDLVLDEEGARAA

- Variants of: B1
- test description: protein stability index of a GFP-peptide fusion (GPS, HEK-293T) (PSI 1-6); higher = more stable;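 further: lentivirally expressed fusions sorted by FACS into six bins by GFP to DsRed ratio, PSI derived from sequencing read proportions per bin multiplied by bin number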
- settings: c terminus: a fixed tail appended
Each entry gets false if its protein stability index stays under 3, and true if its protein stability index is 3 or above.

stdin: Is it the case that `L14T` has protein stability index reaching or exceeding 3?
stdout: true

Further cases:
stdin: Is it the case that `E19C` has protein stability index reaching or exceeding 3?
stdout: false

stdin: Is it the case that `A21M` has protein stability index reaching or exceeding 3?
stdout: true

stdin: Is it the case that `E18M` has protein stability index reaching or exceeding 3?
stdout: false

stdin: Is it the case that `E12V` has protein stability index reaching or exceeding 3?
stdout: true

stdin: Is it the case that `L2H` has protein stability index reaching or exceeding 3?
stdout: false
